The measured values listed here are drawn from the NIST ThermoML archive (doi:10.1021/je900542y).

Assay: mn = molality of the nth substance listed, in mol/kg
Conditions: 298.15 K; 101 kPa; Liquid; m1 = 0.0002
metric_name: mass density (kg/m3)

[[record]]
compound = "CC[N+](CC)(CC)CC.[I-] [tetraethylammonium iodide] + O=[N+]([O-])c1ccccc1"
unit_of_measure = "kg/m3"
reported_value = 1198.91

[[record]]
compound = "CC[N+](CC)(CC)CC.[I-] [tetraethylammonium iodide] + CC#N"
unit_of_measure = "kg/m3"
reported_value = 776.02

[[record]]
compound = "CC[N+](CC)(CC)CC.[I-] [tetraethylammonium iodide] + CO"
unit_of_measure = "kg/m3"
reported_value = 786.38

[[record]]
compound = "CC[N+](CC)(CC)CC.[I-] [tetraethylammonium iodide] + CC(C)=O"
unit_of_measure = "kg/m3"
reported_value = 783.81


====

Reported mass density values for a set of molecules
Experiment: mn = molality of the nth substance listed, in mol/kg
Details: 298.15 K; 101 kPa; Liquid; m2 = 0
metric_name: mass density (kg/m3)

[[record]]
molecule = "CC#N [acetonitrile] + CC[N+](CC)(CC)CC.[I-]"
metric_name = "mass density"
reported_value = 776.01

[[record]]
molecule = "CC(C)=O [acetone] + CC[N+](CC)(CC)CC.[I-]"
metric_name = "mass density"
reported_value = 783.81

[[record]]
molecule = "CO [methanol] + CC[N+](CC)(CC)CC.[I-]"
metric_name = "mass density"
reported_value = 786.38

[[record]]
molecule = "O=[N+]([O-])c1ccccc1 [nitrobenzene] + CC[N+](CC)(CC)CC.[I-]"
metric_name = "mass density"
reported_value = 1198.91

